Provenance of the data: ChEMBL document CHEMBL1134779

# Tested on: A549
# ASSAY TEXT: In vitro inhibition of A549 (human lung cancer) cell growth.
# Type: functional, cell-based
METRIC NAME: IC50 (nM)

A selection of reference data follows.
SMI: Nc1ccnc2c1C(=O)c1c(-c3ccccc3[N+](=O)[O-])ccnc1C2=O
STUDY TARGET: A549
METRIC NAME: IC50
ENDPOINT VALUE: 600

SMI: Nc1ccnc2c1C(=O)c1c(-c3ccccc3NC(=O)C(F)(F)F)ccnc1C2=O
STUDY TARGET: A549
METRIC NAME: IC50
ENDPOINT VALUE: 600

[A] O=C1c2nccc(Cl)c2-c2nc3ccccc3c3ccnc1c23
[B] CCOC(=O)c1cnc2c(c1)C(=O)c1c(-c3ccccc3NC(=O)C(F)(F)F)ccnc1C2=O
Qu. Which entry shows the lesser value of IC50 here, A or B ? // respond with label for picked entry
Ans. A
(A: 7 nM, B: 90 nM)
